# Assay Remarks: yeast display, Sf9 membrane polyspecificity reagent, FACS + sequencing; frameworks hold sequencing errors
Recorded Metric: polyreactivity (PSR sort gate)

Examples from the recorded data:
>  <Sequence Content>
HVQLVESGGGLVQAGGSLRLSCAASGRIFVVYTMGWYRQAPGKERELVASIRGSGDSTNYADSVKGRFTLSRDNAKNTVYLQMNRLKPEDTAVYYCAADLPWSRRYSYRYGYWGQGTQVTVSS

>  <polyreactivity (PSR sort gate)>
low polyreactivity

$$$$
>  <Sequence Content>
QVQLVESGGGLVQAGGSLRLSCAASGSIINFNAMGWYRQQPGKERELDARINQGGGSTYYADSVKGRFTISRDNAKNTVYLQMNSLKPEDTAVYYCAAVRYVLRSPARYGYWGQGTQVTVSS

>  <polyreactivity (PSR sort gate)>
low polyreactivity

$$$$
>  <Sequence Content>
QVHLQESGGGLVQAGGSLRLSCPASGSISRYYDMGWYRQAPGKEREFVAGISGGAITYYADSVKGRFTISRDNAKNTVYLQMNSLKPEDTAVYYCAADTGVYQYHSYWGQGTQVTVSS

>  <polyreactivity (PSR sort gate)>
low polyreactivity

$$$$
>  <Sequence Content>
QVQLVESGGGLVQAGGSLRLSCAASGLTLAWYAMGGYRQAPGKERELVAAISWSGDSTYYADSVKGRFTISRDNAKNTVYLQMNSLKPEDTAVYYCATRVYGGYGYWGQGTQVTVSS

>  <polyreactivity (PSR sort gate)>
high polyreactivity

$$$$
>  <Sequence Content>
QVQLVESGGGLVQAGGSLRLSCAASGRISSLYAMGWYRQAPGKERELVAGITWRGGSTYYADSVKGRFTISRDNAKNTVYLQMNSLKPEDTAVYYCNAVWVQQVVGDGKRTWNFWYDYWGQGTQVTVSS

>  <polyreactivity (PSR sort gate)>
low polyreactivity

$$$$
>  <Sequence Content>
QVQLVDSGGGLVHAGGSLRLSCAASGRTFFINTMGWYRQPPGKEREFVAAITWSAGRTYYADSVKGRITISRDNAKNTVYLQMISLKPEDTAVYYCAAALDGHTFPFYYWGQGTQVTVSS

>  <polyreactivity (PSR sort gate)>
low polyreactivity

$$$$

Incoming: Give the measured polyreactivity (PSR sort gate) of "QVQLVESGGGLVQAGGSLRLSCAASGSILHLYAMGWYRQAPGKERELVARINSGGTTNYADSVKGRFTISRDNAKNTVYLQMNSLKPEDTAVYYCAARFTPYITSDVGHYDYWGQGTQVTVSS" .
Outgoing: low polyreactivity

Incoming: Give the measured polyreactivity (PSR sort gate) of "QVQLVESGGGLVQAGGSLRLSCAASGRTFTFYAMGWYRQAPGKERELVAAIRRGGSTIYADSVKGRFTISRDNAKNTVYLQMNSLKPEDTAVYYCNKRVWYPYWTLDYWGQGTQVTVSS" .
Outgoing: low polyreactivity

Incoming: Give the measured polyreactivity (PSR sort gate) of "QVQLVESGGGLVQAGGSLLLSSAASGSTLVYYTMGRYIPAPGKERELVAGITGSGGSTYYADSVKGRFTISRDNAKNTVYLQMNILIPEDTAVYYCAKRGFRSYHYIRGVYYWGQGTQVTVSS" .
Outgoing: low polyreactivity

Incoming: Give the measured polyreactivity (PSR sort gate) of "QVQLVESGGGLVQAGGSLRLSCADSGLIFYYYAMGWYRHAPGKERELVAAISYNGGTTYYADSVKGRFTISRDNAKNTVYLQMNSLNPEDTAVYYCAAEQLVSGYDYWGQGTQVTVSS" .
Outgoing: low polyreactivity

Incoming: Give the measured polyreactivity (PSR sort gate) of "QVQLVESGGGLVQAGGSLRISCAASGSIFGVNAMGWYRQAPGKERELVASITGGDSTNYADSVKGRFTISRDNAKNTVYLQMNSLKPEDNEVYYCAKDHYYRYEEGDYWGQATQVTVSS" .
Outgoing: low polyreactivity

Incoming: Give the measured polyreactivity (PSR sort gate) of "QVQLVESGGGLVQAGGSLRLSCAASGRIFRWNAMGWYRQAPGKERELVAAISSSGGRTYYADSVKGRFTISRDTAKNTVYLQMNSLKPEDTAVYYCAAYPFSDEYDYWGQGTQVTVSS" .
Outgoing: high polyreactivity

Incoming: Give the measured polyreactivity (PSR sort gate) of "QLQLVESGAGLVQAGGSLRLICAASGSIFKSYAMGWYRQAPGKQMEFVAAISWSGGSTYADSVKGRFTISRDNAKNTVYLQMNSLKPEDTAVYYCNKDDYWFLGFYYWGQGTQVTVSS" .
Outgoing: low polyreactivity

Incoming: Give the measured polyreactivity (PSR sort gate) of "QVQLVESGGGLVQAGGSLRLSCAASGRTFDQYAMGWYTPAPGKARELVADITWSGGTTRYADSVKRRFTISRDNAKNTVYLQMNSLKPEDTAVYYCAVDVTCGYNYWGQGTQVNVSS" .
Outgoing: low polyreactivity

Incoming: Give the measured polyreactivity (PSR sort gate) of "QVQLVESGGGLVQAGGSLRLSCAASGSIIRGYTMGWYRQAPGKERELVADITQSTGSTYYADSVKGRFTISRDTAKNTVYFQMNSLKPEDTAVYYCAAVEGWYLFTSNYWGQGTQVNVSS" .
Outgoing: low polyreactivity

Incoming: Give the measured polyreactivity (PSR sort gate) of "QVQLVESGGGLVQAGGSLRLSCAASGRTFYYYTMGWSRQAPGKERELVAAITSVGSTSYADSVKGRFTISRANAKNTVYLQMNSPKPEATAVYYCAADYQYVWFYYWGQGTQVTVSS" .
Outgoing: high polyreactivity

Incoming: Give the measured polyreactivity (PSR sort gate) of "QVQLVESGGGLVQAGGSLRLSCAASGGTFHKYDMGWYRQAPGKERELVAYADSVKGRFTISRDNAKNTVYLQMNSLKPEDTAVYYCNADWQSYGYLCHSSLYYYWGQGTQVTVSS" .
Outgoing: low polyreactivity

Incoming: Give the measured polyreactivity (PSR sort gate) of "QVQLVESGRGLVQAGGSLRLSCEDSGNIFPYYAMGWYRQAPGKERELVAAISGSGDRTYYADSVNGRFTISRDNAKNTVYLQMNSLKPEDTAVYYCAAYRRYYGWYDYWGQGTQVTVSS" .
Outgoing: high polyreactivity

Incoming: Give the measured polyreactivity (PSR sort gate) of "QVQLVESGGGLVQAGGSLRLSCAASGSIFVPYAMGWYRQAPGKERELVAAISSGGSTNYADSVKGRFTISRDNAKNTVYLQMNSLKPEDTAVYYCNADYSVYIIADEYDYWGQGTQVTVSS" .
Outgoing: low polyreactivity

Incoming: Give the measured polyreactivity (PSR sort gate) of "QVQLVESGGGLVQAGGSLRLSCAASGSTFWSYAMGWYRQAPGKEREFVAAISSSDDSTYYADSVKGRFTISRDNAKNTVYLQMNSMKPEDTAVYYCATSWYIYPYDYWGQGTQVTVSS" .
Outgoing: low polyreactivity

Incoming: Give the measured polyreactivity (PSR sort gate) of "QVQLVESGGGLVQAGGSLRLSSAASGRILPVNTMGWYRQAPGKERELVAVITRSGGRTYYADSVKGRFTISRDNAKNTVYLQMNSLKPEDTAVYYCAADVGFRWYRYTAGPLEYDYWGQGTQVTVSS" .
Outgoing: high polyreactivity
